# assayedSystem: T1, HCV Core1-169 (hepatitis C virus (HCV-1), UniProt P26664 1-169)
# T1 sequence: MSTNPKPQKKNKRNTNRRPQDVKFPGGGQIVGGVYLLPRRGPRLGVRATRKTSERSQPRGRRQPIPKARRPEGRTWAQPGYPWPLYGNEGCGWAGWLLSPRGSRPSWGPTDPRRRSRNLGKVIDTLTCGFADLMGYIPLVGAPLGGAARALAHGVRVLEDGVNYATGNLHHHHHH
# experimentSummary: SPR sandwich, capture mAb C11-14
Classification field: enter Condition met for expected percent binding values not below 9%, Condition not met for values below it.

Reported expected percent binding reaches at least 9% for HCV 208B-547 (antibody, V domains shown) VH: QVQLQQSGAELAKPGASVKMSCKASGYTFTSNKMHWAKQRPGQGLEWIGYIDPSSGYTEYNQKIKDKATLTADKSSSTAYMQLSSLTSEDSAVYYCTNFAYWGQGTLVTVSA VL: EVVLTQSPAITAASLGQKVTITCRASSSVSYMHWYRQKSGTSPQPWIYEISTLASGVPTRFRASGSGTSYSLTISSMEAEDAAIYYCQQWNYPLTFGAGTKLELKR ? Condition not met

Reported expected percent binding reaches at least 9% for HCV 208A-605 (antibody, V domains shown) VH: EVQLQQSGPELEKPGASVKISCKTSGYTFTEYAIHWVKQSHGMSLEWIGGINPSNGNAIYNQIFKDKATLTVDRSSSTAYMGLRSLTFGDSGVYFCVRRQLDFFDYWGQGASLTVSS VL: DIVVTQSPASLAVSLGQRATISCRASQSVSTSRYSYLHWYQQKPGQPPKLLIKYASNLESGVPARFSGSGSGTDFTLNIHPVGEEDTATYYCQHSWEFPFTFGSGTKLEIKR ? Condition met

Reported expected percent binding reaches at least 9% for HCV 208B-395 (antibody, V domains shown) VH: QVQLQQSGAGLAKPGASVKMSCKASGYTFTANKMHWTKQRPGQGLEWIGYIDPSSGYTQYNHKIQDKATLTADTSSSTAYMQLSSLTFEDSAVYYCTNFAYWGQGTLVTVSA VL: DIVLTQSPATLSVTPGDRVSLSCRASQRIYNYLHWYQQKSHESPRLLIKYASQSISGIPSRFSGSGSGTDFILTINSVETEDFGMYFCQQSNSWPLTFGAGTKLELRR ? Condition not met

Reported expected percent binding reaches at least 9% for HCV 208B-178 (antibody, V domains shown) VH: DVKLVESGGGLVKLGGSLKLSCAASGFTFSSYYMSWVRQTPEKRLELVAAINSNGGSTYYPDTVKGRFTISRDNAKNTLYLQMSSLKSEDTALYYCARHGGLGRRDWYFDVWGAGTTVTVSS VL: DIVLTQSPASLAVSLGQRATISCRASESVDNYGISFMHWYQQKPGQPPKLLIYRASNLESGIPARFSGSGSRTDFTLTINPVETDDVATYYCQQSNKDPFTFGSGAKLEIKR ? Condition not met

Reported expected percent binding reaches at least 9% for HCV 208A-133 (antibody, V domains shown) VH: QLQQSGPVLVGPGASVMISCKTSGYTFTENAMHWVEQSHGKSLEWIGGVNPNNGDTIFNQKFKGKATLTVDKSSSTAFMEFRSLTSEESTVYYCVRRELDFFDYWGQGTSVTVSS VL: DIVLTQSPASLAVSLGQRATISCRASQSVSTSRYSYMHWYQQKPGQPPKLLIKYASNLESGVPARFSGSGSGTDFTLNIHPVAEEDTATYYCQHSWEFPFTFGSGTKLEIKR ? Condition met

Reported expected percent binding reaches at least 9% for HCV 208A-1064 (antibody, V domains shown) VH: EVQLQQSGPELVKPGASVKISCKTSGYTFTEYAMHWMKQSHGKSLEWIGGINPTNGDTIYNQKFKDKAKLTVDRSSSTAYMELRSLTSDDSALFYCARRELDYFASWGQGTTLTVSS VL: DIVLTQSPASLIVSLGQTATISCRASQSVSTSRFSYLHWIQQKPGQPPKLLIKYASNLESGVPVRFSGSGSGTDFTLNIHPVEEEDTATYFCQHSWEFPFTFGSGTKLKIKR ? Condition met

Reported expected percent binding reaches at least 9% for HCV 208A-557 (antibody, V domains shown) VH: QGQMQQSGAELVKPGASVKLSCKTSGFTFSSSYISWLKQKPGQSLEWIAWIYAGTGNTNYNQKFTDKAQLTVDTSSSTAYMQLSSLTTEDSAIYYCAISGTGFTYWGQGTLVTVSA VL: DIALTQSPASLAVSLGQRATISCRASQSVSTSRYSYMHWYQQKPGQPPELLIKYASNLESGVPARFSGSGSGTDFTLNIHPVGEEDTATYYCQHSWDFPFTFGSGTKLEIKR ? Condition met

Reported expected percent binding reaches at least 9% for HCV 208B-281 (antibody, V domains shown) VH: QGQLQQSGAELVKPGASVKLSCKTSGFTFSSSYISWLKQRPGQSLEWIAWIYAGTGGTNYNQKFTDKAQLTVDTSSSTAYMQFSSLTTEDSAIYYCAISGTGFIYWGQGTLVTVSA VL: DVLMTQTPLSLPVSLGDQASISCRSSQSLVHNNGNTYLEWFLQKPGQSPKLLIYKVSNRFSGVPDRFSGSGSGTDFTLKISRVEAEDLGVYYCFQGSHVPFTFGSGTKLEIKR ? Condition not met

Reported expected percent binding reaches at least 9% for HCV 208A-352 (antibody, V domains shown) VH: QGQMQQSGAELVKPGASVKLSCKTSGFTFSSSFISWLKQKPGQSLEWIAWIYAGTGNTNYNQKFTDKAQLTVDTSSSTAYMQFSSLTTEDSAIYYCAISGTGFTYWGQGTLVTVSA VL: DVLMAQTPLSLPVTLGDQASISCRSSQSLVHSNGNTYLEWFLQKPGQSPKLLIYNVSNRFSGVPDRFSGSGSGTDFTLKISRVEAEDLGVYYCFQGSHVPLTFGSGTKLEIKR ? Condition not met

Reported expected percent binding reaches at least 9% for HCV 208A-874 (antibody, V domains shown) VH: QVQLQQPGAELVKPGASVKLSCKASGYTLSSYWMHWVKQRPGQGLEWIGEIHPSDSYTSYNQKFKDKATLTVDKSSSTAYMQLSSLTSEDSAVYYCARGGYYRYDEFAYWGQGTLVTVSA VL: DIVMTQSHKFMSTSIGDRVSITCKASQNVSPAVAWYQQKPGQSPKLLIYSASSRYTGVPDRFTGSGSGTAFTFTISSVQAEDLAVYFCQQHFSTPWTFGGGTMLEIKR ? Condition not met

Cited source: patent US20170052184A1
